Known Ki of a selection of compounds
SYSTEM_TESTED: Rhesus PDE2A3 (Macaca mulatta)
Sequence (B3VTJ2 1-941): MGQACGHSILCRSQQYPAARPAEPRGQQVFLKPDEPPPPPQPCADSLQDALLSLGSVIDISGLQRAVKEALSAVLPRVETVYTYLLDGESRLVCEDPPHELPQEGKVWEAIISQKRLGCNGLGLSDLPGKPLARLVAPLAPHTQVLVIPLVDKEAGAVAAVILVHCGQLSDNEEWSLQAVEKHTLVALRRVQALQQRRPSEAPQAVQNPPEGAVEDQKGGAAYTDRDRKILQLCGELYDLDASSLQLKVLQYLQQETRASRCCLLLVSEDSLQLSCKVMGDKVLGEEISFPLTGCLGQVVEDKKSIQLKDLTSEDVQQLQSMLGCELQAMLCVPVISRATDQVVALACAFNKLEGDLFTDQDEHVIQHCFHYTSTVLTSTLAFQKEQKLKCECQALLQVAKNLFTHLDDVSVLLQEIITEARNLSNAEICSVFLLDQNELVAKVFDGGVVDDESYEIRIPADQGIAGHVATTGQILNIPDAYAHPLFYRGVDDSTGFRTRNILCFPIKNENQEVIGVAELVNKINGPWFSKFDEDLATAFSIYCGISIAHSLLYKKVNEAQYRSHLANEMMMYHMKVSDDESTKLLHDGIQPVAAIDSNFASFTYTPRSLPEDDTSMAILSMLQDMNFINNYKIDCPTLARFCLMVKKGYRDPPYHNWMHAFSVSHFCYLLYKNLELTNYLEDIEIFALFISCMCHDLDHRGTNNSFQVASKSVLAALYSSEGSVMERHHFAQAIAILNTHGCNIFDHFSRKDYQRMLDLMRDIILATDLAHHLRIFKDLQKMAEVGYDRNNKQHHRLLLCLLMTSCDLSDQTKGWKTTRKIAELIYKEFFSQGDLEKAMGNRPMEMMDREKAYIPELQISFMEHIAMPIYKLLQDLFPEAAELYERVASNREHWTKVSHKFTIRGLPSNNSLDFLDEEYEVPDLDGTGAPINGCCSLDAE
METHOD_DESCRIPTION: PDE2 fluorescence polarization (IMAP FP) assay, rhesus PDE2A3
Assay type: biochemical, rhesus macaque
STUDY_CONDITIONS: Lab B, read-out: Rhesus PDE2 Ki (nM) Lab B

Here is how some compounds turned out for Ki.
CC(c1ccc(C(F)(F)F)c(F)c1)n1nc(CO)c2c(=O)[nH]c(O)nc21 (single isomer, unassigned) [Example 1] : 13 nM
CC(C)(C)C(c1ccc(C(F)(F)F)cc1)n1nc(C(F)F)c2c(=O)[nH]c(O)nc21 (single isomer, unassigned) [Example 284] : 206 nM

In plain terms, CC(c1ccc(C(F)(F)F)c(F)c1)n1nc(CO)c2c(=O)[nH]c(O)nc21 (single isomer, unassigned) [Example 2] has a documented Ki of 364 nM
